TARGET_SYSTEM: PI3K β (Homo sapiens, UniProt P42338)
Construct: Full length p110 subunits of PI3K α, β and δ, N-terminally labeled with polyHis tag; polyHis (N)
Sequence (P42338 whole entry): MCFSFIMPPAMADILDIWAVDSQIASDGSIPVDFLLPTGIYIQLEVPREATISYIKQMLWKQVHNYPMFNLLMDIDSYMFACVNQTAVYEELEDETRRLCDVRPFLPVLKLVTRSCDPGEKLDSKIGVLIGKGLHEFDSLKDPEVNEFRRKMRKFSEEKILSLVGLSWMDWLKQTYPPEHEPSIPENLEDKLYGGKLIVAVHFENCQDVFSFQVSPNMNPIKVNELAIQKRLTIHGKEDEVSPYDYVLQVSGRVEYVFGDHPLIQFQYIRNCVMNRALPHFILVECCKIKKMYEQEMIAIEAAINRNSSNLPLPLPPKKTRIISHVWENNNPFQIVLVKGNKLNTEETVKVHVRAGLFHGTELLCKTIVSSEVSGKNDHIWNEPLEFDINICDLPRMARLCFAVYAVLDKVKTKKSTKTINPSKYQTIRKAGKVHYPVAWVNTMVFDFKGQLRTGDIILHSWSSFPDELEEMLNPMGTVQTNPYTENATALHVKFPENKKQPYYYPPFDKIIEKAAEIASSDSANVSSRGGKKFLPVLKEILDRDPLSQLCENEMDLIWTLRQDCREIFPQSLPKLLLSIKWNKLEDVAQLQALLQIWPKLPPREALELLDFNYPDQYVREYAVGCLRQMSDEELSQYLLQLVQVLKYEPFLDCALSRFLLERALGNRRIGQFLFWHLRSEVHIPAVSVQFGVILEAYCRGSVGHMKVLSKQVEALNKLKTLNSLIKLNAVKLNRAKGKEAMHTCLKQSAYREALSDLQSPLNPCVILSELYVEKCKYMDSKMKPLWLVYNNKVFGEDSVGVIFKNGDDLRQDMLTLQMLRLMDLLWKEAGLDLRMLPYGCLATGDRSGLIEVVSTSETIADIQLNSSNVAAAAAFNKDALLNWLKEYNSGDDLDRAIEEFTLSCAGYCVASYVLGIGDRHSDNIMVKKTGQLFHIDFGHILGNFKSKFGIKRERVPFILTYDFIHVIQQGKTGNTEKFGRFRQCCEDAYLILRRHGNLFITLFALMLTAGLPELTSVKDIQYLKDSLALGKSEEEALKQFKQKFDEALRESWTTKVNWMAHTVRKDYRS
Sequence (P27986 whole entry partner): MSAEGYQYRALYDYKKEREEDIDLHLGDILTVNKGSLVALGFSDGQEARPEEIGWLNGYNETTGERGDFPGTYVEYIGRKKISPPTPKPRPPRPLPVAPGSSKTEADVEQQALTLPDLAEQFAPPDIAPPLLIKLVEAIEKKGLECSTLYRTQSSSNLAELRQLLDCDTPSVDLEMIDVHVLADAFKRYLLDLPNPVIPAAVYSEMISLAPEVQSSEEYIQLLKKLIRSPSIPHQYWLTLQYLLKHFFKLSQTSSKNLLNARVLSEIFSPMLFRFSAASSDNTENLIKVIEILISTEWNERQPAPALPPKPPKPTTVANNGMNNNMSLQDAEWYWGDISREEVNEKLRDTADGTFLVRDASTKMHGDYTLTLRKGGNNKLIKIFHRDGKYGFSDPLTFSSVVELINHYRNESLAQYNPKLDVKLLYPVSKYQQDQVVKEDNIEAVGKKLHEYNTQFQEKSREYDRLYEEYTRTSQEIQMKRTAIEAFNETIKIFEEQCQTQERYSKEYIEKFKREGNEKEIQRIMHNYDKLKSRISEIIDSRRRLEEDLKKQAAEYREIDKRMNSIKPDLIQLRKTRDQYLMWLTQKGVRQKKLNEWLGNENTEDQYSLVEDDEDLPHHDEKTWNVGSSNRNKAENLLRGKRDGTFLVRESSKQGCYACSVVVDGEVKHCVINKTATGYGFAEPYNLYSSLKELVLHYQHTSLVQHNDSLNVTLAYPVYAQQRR
PROTOCOL_DESCRIPTION: In vitro PI3 kinase enzyme assay (beta), ATP loss, bioluminescence;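 note: purified p110β/p85 heterodimer with PtdIns(4,5)P2 as acceptor, incubated at room temperature, leftover ATP read by luminescence, inhibition scaled to compound-free wells with and without enzyme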
REPORTED_CONDITIONS: read-out: PI3Kβ ATP loss IC50
pIC50: −log10 of the molar value.
Consider the following molecules; for each one, report its pIC50.

Prompt line: Endpoint output: pIC50 of CC(=O)Nc1nc2ccc(-c3ccnc(OCCCN4CCOC4=O)n3)cc2s1 [Example 32] . Value?
Response line: < 4.40

Prompt line: Which pIC50 value is on record for CC(=O)Nc1nc2ccc(-c3ccnc(N4CCCCC4)n3)cc2s1 [Example 263] ?
Response line: < 4.40

Prompt line: GET /values?readout=pIC50&item= COCCOCOc1cc(-c2ccc3nc(NC(C)=O)sc3c2)cnc1C(F)(F)F [Example 293]
Response line: < 4.40
